assay: qHTS of pediatric cancer cell lines to identify multiple opportunities for drug repurposing: Confirmatory screen for SK-N-SH cells (AID 1347129); settings: SK-N-SH neuroblastoma cell viability; series mostly up to 46.1 µM;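 note: cells exposed to compound for 48 h before viability read; nearly all actives have a fitted effect of over 60% in size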
Results filed as inconclusive are left out. Active and inactive are the calls of the source. Calls come from the whole dose curve; as a rule, active = well fitted cell-killing curve with a large enough effect; inconclusive = small, poorly fitted or top-dose-only effect; inactive = flat fitted curve, though single readings scatter.
I would appreciate it if you answered using one of these outcomes: True = active, False = inactive

Field: example entries. Status: answers known.
Compound | Category label
Nc1ccn([C@@H]2O[C@H](CO)[C@H](O)C2(F)F)c(=O)n1 | False
Cc1cn(-c2cc(NC(=O)c3ccc(C)c(Nc4nccc(-c5cccnc5)n4)c3)cc(C(F)(F)F)c2)cn1 | True
Cc1cn2c(-c3cn[nH]c3)cnc2c(Nc2ccc(C(=O)N3CCNCC3)cc2F)n1 | True
CN(C)Cc1c(C(=O)NCCOc2ccc(C(=O)NO)cc2)oc2ccccc12 | True
COc1ccc(-n2nc(C(N)=O)c3c2C(=O)N(c2ccc(N4CCCCC4=O)cc2)CC3)cc1 | False

Incoming: Recorded call for CNC(=O)c1nn(C)c2c1C(C)(C)Cc1cnc(Nc3ccc(N4CCN(C)CC4)cc3)nc1-2 ?
Outgoing: True

Incoming: Test call, this compound: CCn1nnc2c(N3CCOCC3)nc(-c3ccc(NC(=O)Nc4ccc(C(=O)N5CCN(C)CC5)cc4)cc3)nc21
Outgoing: True

Incoming: Tell me the recorded outcome of this test for COC(=O)Nc1ccc(-c2nc(N3CCOCC3)c3cnn(C4CCN(Cc5cccnc5)CC4)c3n2)cc1 .
Outgoing: True

====

system: ECU; experiment: qHTS profiling for inhibitors of Plasmodium falciparum proliferation (AID 504749); note: nearly all actives have a fitted effect of over 60% in size; note: potency is the fitted concentration of half-maximal effect; settings: P. falciparum in erythrocytes, SYBR Green DNA, 72 h; series mostly up to 28.7 µM
Inconclusive results are not listed. Active and inactive are the calls of the source. Calls follow the shape of the dose curve; as a rule, active = well fitted inhibition curve with a large enough effect; inconclusive = small, poorly fitted or top-dose-only effect; inactive = flat fitted curve, though single readings scatter.

Record smiles | Potency
Nc1ccc(S(=O)(=O)Nc2ncccn2)cc1 | inactive
O=C(O)CO.[NH2-].[NH2-].[Pt+2] | inactive
Nc1ccn([C@@H]2O[C@H](CO)[C@H](O)C2(F)F)c(=O)n1 | 5.01 µM (active)

====

experiment: Quantitative High-Throughput drug screen in 47 multiple myeloma cell lines against the NCATS MIPE library collection: ARD_JJKsccE7 cell viability assay (AID 1918929); settings: ARD myeloma cell line viability, CellTiter-Glo, 48 h; series mostly up to 45.8 µM
Results filed as inconclusive are left out. Activity calls are given as the source filed them. Calls follow the shape of the dose curve; as a rule, active = well fitted cell-killing curve with a large enough effect; inconclusive = small, poorly fitted or top-dose-only effect, or effect the other way; inactive = no such curve, though single readings can be large or run the other way.
Pick one and only one: true = active, false = inactive

Example cases with answers are listed next.
Compound | Category label
CC=C1NC(=O)[C@H]2CSSCCC=C[C@H](CC(=O)N[C@H](C(C)C)C(=O)N2)OC(=O)[C@H](C(C)C)NC1=O | true
N#Cc1c(O)c2c(-c3ccc(-c4ccccc4O)cc3)csc2[nH]c1=O | false
COc1ccc2c(c1)CC[C@@H](CN(C)CC(=O)O)[C@H]2c1ccccc1 | true
CN1CCN(Cc2ccc(NC(=O)Nc3ccc(Oc4cc(NC(=O)C5CC5)ncn4)cc3)cc2C(F)(F)F)CC1 | false
Cc1ccc(NC(=O)C2(c3ccc4c(c3)OC(F)(F)O4)CC2)nc1-c1cccc(C(=O)O)c1 | true

Incoming: How did this test come out for CS(=O)(=O)c1ccc(-c2cnc(N)c(C(=O)Nc3ccccc3)n2)cc1 ?
Outgoing: false

Incoming: What was the test verdict on CC(C)(C)c1cnc(CSc2cnc(NC(=O)C3CCNCC3)s2)o1 ?
Outgoing: true

Incoming: Record request — test call for Cc1cc(Nc2nc(N[C@@H](C)c3ccc(F)cc3)c(C#N)cc2F)n[nH]1
Outgoing: true

Incoming: Write down the call the test reported for this compound. Item: Cn1cc(-c2[nH]c3cc(NC(=O)[C@H](N)C4CCCCC4)cc4c3c2C=NNC4=O)cn1
Outgoing: true
